- MEASUREMENT_NOTES: recombinant UMI read abundance after kanamycin selection (control-corrected) (log10(CPM+1)); higher = more efficient recombination; extreme values may be limits of the assay; sequences stand for … in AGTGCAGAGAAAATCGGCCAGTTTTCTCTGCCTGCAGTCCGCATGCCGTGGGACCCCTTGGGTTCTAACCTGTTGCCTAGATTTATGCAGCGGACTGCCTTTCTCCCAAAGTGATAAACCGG…AGGTTGGTTTCACT; site = the 11-nt donor
recombinant UMI read abundance (log10) below 0.7 gives label 0; recombinant UMI read abundance (log10) at or above it gives label 1.

See these solved cases before continuing.
{"CHAIN_SEQUENCE": "GCAGATCCATGGACCGGTTTTCCCGGTAATCCGTATTTGTC (site GCAGATCCTGA)", "CATEGORY_LABEL": "label 0"}
{"CHAIN_SEQUENCE": "GGTACGTCATGGACCGGTTTTCCCGGTAATCCGTATTTGAT (site GGTACGTCTAA)", "CATEGORY_LABEL": "label 0"}
{"CHAIN_SEQUENCE": "CCCAACCCATGGACCGGTTTTCCCGGTAATCCGTATTTGTG (site CCCAACCCTCA)", "CATEGORY_LABEL": "label 0"}
{"CHAIN_SEQUENCE": "CCTGTACCATGGACCGGTTTTCCCGGTAATCCGTATTTGCG (site CCTGTACCTCG)", "CATEGORY_LABEL": "label 0"}

Please check the record ATTGCCTCATGGACCGGTTTTCCCGGTAATCCGTATTTGCT (site ATTGCCTCTAG) and state if its recombinant UMI read abundance (log10) is at or above 0.7.
label 1

Please check the record TCAAACTCATGGACCGGTTTTCCCGGTAATCCGTATTTGCA (site TCAGACTCTTG) and state if its recombinant UMI read abundance (log10) is at or above 0.7.
label 0

---

sequences and their reported recombinant barcode read abundance (log10)
- MEASUREMENT_NOTES: recombinant barcode read abundance after kanamycin selection (control-corrected) (log10(CPM+1)); higher = more efficient recombination; sequences stand for … in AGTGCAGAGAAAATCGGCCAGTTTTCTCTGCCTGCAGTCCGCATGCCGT…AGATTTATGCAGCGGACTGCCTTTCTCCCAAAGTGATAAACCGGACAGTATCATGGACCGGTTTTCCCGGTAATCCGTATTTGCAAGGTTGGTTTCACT; site = the 11-nt target

Take a look at these entries with their results.
{"CHAIN_SEQUENCE": "TAGAAGGCTTGGGTTCTAACCTGTTGCAT (site TAGAAGGCTAA)", "TEST_VALUE": 0.162}
{"CHAIN_SEQUENCE": "AGAGCGACTTGGGTTCTAACCTGTTGCCT (site AGAGAGACTAG)", "TEST_VALUE": 0.127}
{"CHAIN_SEQUENCE": "TTGGGTCCTTGGGTTCTAACCTGTTGCGT (site TTGGGTCCTAC)", "TEST_VALUE": 3.32}
{"CHAIN_SEQUENCE": "AGGATATCTTGGGTTCTAACCTGTTGCCT (site AGGATATCTAG)", "TEST_VALUE": 0.559}
{"CHAIN_SEQUENCE": "CTTCGTCCTTGGGTTCTAACCTGTTGCCT (site CTTCGTCCTAA)", "TEST_VALUE": 0.132}

Quick one: give measured recombinant barcode read abundance (log10) for CTAATTCCTTGGGTTCTAACCTGTTGCAT (site CTAAGTCCTAT)
0.0341

Quick one: give measured recombinant barcode read abundance (log10) for GAATATTCTTGGGTTCTAACCTGTTGCCT (site GAATATTCTAG)
0.739

Quick one: give measured recombinant barcode read abundance (log10) for TCGCGTACTTGGGTTCTAACCTGTTGCAT (site GCTCGTACTAT)
0.0605

Quick one: give measured recombinant barcode read abundance (log10) for CTCTGTCCTTGGGTTCTAACCTGTTGCCA (site CTCTGTCCTTG)
0.545

Quick one: give measured recombinant barcode read abundance (log10) for CACATTCCTTGGGTTCTAACCTGTTGCCT (site GACATTCCTAG)
0.141
